test: in vivo; details: rat, po, 100 mg/kg
readout: concentration at 2 h (µg/mL)
State the answer as a number, implicitly in µg/mL.

Recorded result, O=C(O)c1cccnc1 , concentration at 2 h: 98.3

* * *

experiment: in vivo; conditions: rat, ip, male
readout: LD50 (mg/kg)
Number in mg/kg, nothing else.

The reported LD50 of the compound O=C(N[C@H]1C(OC(=O)c2cccnc2)O[C@H](COC(=O)c2cccnc2)[C@@H](OC(=O)c2cccnc2)[C@@H]1OC(=O)c1cccnc1)c1cccnc1 (stereo partly shown) [GLUN, N-nicotinoyl-glucosamine tetranicotinate] was 6650

* * *

assay: in vivo; settings: rat, po, 100 mg/kg
readout: concentration at 8 h (ng/mL)
Provide only the numeric value, understood in ng/mL.

In plain terms, O=C(O)c1cccnc1 has a documented concentration at 8 h of 250

* * *

tested on: plasma levels of triglycerides; test: Effect of oral administration on plasma levels of triglycerides in the empty rat; type: in vivo, rat (COBS CD (SD) BR male); conditions: 30 mg/kg oral, rat
readout: Time within which the effect on triglycerides disappears

The examples below pair each entry with its known result.
Kindly note the recorded Time within which the effect on triglycerides disappears for O=C(OC[C@H](OC(=O)c1cccnc1)[C@@H](OC(=O)c1cccnc1)[C@H](OC(=O)c1cccnc1)[C@@H](COC(=O)c1cccnc1)OC(=O)c1cccnc1)c1cccnc1 [SORBINICATE, D-glucitol hexanicotinate] , which is ≤ 2 h

Kindly note the recorded Time within which the effect on triglycerides disappears for O=C(OCC(COC(=O)c1cccnc1)(COC(=O)c1cccnc1)COC(=O)c1cccnc1)c1cccnc1 [NICERITROLE, pentaerithritol-tetranicotinate] , which is ≤ 2 h

Sure, the documented Time within which the effect on triglycerides disappears for O=C(N[C@H]1C(OC(=O)c2cccnc2)O[C@H](COC(=O)c2cccnc2)[C@@H](OC(=O)c2cccnc2)[C@@H]1OC(=O)c1cccnc1)c1cccnc1 (stereo partly shown) [GLUN, N-nicotinoyl-glucosamine tetranicotinate] is ≤ 16 h

More entries:
So for O=C(O)c1cccnc1 , the logged Time within which the effect on triglycerides disappears turned out to be ≤ 4 h

* * *

test: Acute toxicity (LD50) in rats of both sexes, oral and intraperitoneal route; details: rat, in vivo, po, LD50, rat, male, os
readout: LD50 (mg/kg)
The answer is to be given in mg/kg; state only the numeric part.

LD50 reported for this compound O=C(O)c1cccnc1 : 3860

* * *

assay: in vivo; conditions: rat, po, female, os
readout: LD50

Lab book: LD50 of O=C(N[C@H]1C(OC(=O)c2cccnc2)O[C@H](COC(=O)c2cccnc2)[C@@H](OC(=O)c2cccnc2)[C@@H]1OC(=O)c1cccnc1)c1cccnc1 (stereo partly shown) [GLUN, N-nicotinoyl-glucosamine tetranicotinate] noted as > 8000 mg/kg

* * *

Entries annotated with measured Percent variations of plasma cholesterol with respect to the controls
tested on: plasma levels of cholesterol; test: Effect of oral administration on plasma levels of cholesterol in the empty rat; format: in vivo, rat (COBS CD (SD) BR male); conditions: 100 mg/kg oral referred to nicotinic acid, 24 h, empty rat
Field: numeric (%). Do not append units.

In plain terms, O=C(N[C@H]1C(OC(=O)c2cccnc2)O[C@H](COC(=O)c2cccnc2)[C@@H](OC(=O)c2cccnc2)[C@@H]1OC(=O)c1cccnc1)c1cccnc1 (stereo partly shown) [GLUN, N-nicotinoyl-glucosamine tetranicotinate] has a documented Percent variations of plasma cholesterol with respect to the controls of -37

Form: compound = O=C(OC[C@H](OC(=O)c1cccnc1)[C@@H](OC(=O)c1cccnc1)[C@H](OC(=O)c1cccnc1)[C@@H](COC(=O)c1cccnc1)OC(=O)c1cccnc1)c1cccnc1 [SORBINICATE, D-glucitol hexanicotinate] ; Percent variations of plasma cholesterol with respect to the controls = -9

In plain terms, O=C(O)c1cccnc1 [NICOTINIC ACID, nicotinic acid] has a documented Percent variations of plasma cholesterol with respect to the controls of -27

Now turn to the next compound.
Record summary for O=C(OCC(COC(=O)c1cccnc1)(COC(=O)c1cccnc1)COC(=O)c1cccnc1)c1cccnc1 [NICERITROLE, pentaerithritol-tetranicotinate] : reported Percent variations of plasma cholesterol with respect to the controls = -14
